Tested on: Fibroblast
Assay Comment: Incucyte cell viability with human fibroblast; note: filed as whole numbers so only -1 and 0 and 1 occur
Assay type: toxicity, cell-based
Measurement Context: 6 h, 10 µM, compound concentration 10 uM, replicate number 1, timepoint 6 hours
Quantity Kind: Growth Rate
No unit in the answer, only the number.

Could you tell me which Growth Rate is on file for "CCOc1cc(C(=O)N2CCC(N3CCN(C)CC3)CC2)ccc1Nc1ncc2c(n1)N(C1CCCC1)c1ccccc1C(=O)N2C" ?
1

Could you tell me which Growth Rate is on file for "COc1cc(N2CCC(N3CCN(C)CC3)CC2)ccc1Nc1ncnc(Nc2ccccc2S(=O)(=O)C(C)C)n1" ?
0

Could you tell me which Growth Rate is on file for "CCCCCCCCCCCCCCCCOC[C@H](COP(=O)([O-])OCC[N+](C)(C)C)OC(C)=O" ?
1

Could you tell me which Growth Rate is on file for "Cc1ccc2nc(NCCN)c3ncc(C)n3c2c1.O=C(O)C(F)(F)F.O=C(O)C(F)(F)F" ?
0

Could you tell me which Growth Rate is on file for Cc1oncc1C(=O)Nc1ccc(C(F)(F)F)cc1 [LEFLUNOMIDE] ?
1

Could you tell me which Growth Rate is on file for "COc1ccnc(N2CCC3(CCCN(Cc4c[nH]c5ccccc45)C3=O)CC2)n1" ?
0

----------
Test system: Fibroblast
Assay Comment: Multiplex assay against human fibroblast
Format: toxicity, cell-based
Measurement Context: 24 h, 1 µM, compound concentration 1 uM, replicate 2
Binning scheme for Population Apoptotic (%): LOW (below 40%), MID (40% to below 60%), HIGH (60% or more)

Some entries whose results are on file:
{"Compound": "O=C(Nc1ccc(Cl)cc1)Nc1cccc(-c2cccc(N3CCCC3)n2)c1", "Cat": "LOW"}
{"Compound": "CN1CCC(=C2c3ccccc3CC(=O)c3sccc32)CC1.O=C(O)/C=C/C(=O)O [KETOTIFEN FUMARATE]", "Cat": "HIGH"}
{"Compound": "CCc1cccc(CC)c1NC(=O)c1nn(C)c2c1CCc1cnc(Nc3ccc(N4CCN(C)CC4)cc3OC)nc1-2", "Cat": "HIGH"}
{"Compound": "CCc1cccc(CC)c1NC(=O)c1nn(C)c2c1CCc1cnc(Nc3ccc(C(=O)NC4CCN(C)CC4)cc3OC(F)(F)F)nc1-2", "Cat": "LOW"}
{"Compound": "CCNc1cc(N[C@H]2CC[C@H](O)CC2)nc(Nc2ccc3c(ccn3Cc3ccccc3)c2)n1", "Cat": "HIGH"}

State the band of CCCS(=O)(=O)Nc1ccc(F)c(C(=O)c2c[nH]c3ncc(Cl)cc23)c1F [PLX-4720]
LOW

State the band of CCOc1cc2ncc(C#N)c(Nc3ccc(OCc4ccccn4)c(Cl)c3)c2cc1NC(=O)/C=C/CN(C)C [NERATINIB]
LOW

State the band of CN(C)C(=O)C(CCN1CCC(O)(c2ccc(Cl)cc2)CC1)(c1ccccc1)c1ccccc1.Cl [LOPERAMIDE HYDROCHLORIDE]
MID

----------
System: U2OS
Assay Comment: Multiplex assay against U2OS
Assay type: toxicity, cell-based
Measurement Context: human, 12 h, 1 µM, compound concentration 1 uM, replicate 1
Quantity Kind: Population Pyknosed Nuclei (%)
# value in %; strip the unit string

Example compounds with recorded Population Pyknosed Nuclei (%):
{"Compound": "Cc1cn(-c2cc(NC(=O)c3ccc(C)c(Nc4nccc(-c5cccnc5)n4)c3)cc(C(F)(F)F)c2)cn1 [NILOTINIB]", "Number": 16}
{"Compound": "CCCn1c(=O)c2[nH]c(-c3cnn(Cc4cccc(C(F)(F)F)c4)c3)nc2n(CC)c1=O [GS 6201]", "Number": 13}
{"Compound": "CN1CCN(C(=O)C(C)(C)c2ccc(C(=O)Nc3cn4cc(-c5cc(C(C)(C)C)cc(C(C)(C)C)c5)ccc4n3)cc2)CC1 [T3-CLK-N]", "Number": 9}
{"Compound": "CCOC(=O)c1c(C)[nH]c2ccc3c(c12)CN1CCc2cc(OC)ccc2C1O3 (stereo not drawn)", "Number": 8}
{"Compound": "CCOc1cc(C(=O)N2CCC(N3CCN(C)CC3)CC2)ccc1Nc1ncc2c(n1)N(C1CCCC1)c1ccccc1C(=O)N2C", "Number": 15}
{"Compound": "CNC(=O)c1ccc(Nc2nc(OC3CCCC3)c3c(-c4ccc5nc(C)oc5c4)c[nH]c3n2)c(OC)c1", "Number": 25}

Could you tell me which Population Pyknosed Nuclei (%) is on file for "CCc1cccc(CC)c1NC(=O)c1nn(C)c2c1CCc1cnc(Nc3ccc(C(=O)NC4CCN(C)CC4)cc3OC(F)(F)F)nc1-2" ?
20

Could you tell me which Population Pyknosed Nuclei (%) is on file for "Cl.O=C(c1ccc(Nc2nccc(-c3cc4ccccc4s3)n2)cc1)N1CCC(N2CCCC2)CC1" ?
11
